# experimental.details: soluble on expression in E. coli; label from the status in PepcDB or PDB records

# sequence.entry, soluble on expression in E. coli
records = [
    ("MPCVFQIWEKGMEKQEIGIYGREKMFMRKKENELQIDWKHFYLGVLALVIPMALQNLINVGVTAADVVMLGRVGETALSGSSLAGQVQY", "not soluble"),
    ("MGSDKIHHHHHHMRIDVDAFKVLEVLVEEGSFAKAAERLHKAQSAVSYQIKKLEQHLGVSLLSREQYRAELTAEGRVILAEGQRLLSHLANIEHLASRFSEGWEPKLELVIDGALPMEPIMTALKRMAEHQIPTKIQLNMEFLGGVQHRFERDNADLMLVKDYRTGPYYYAKPLPAITSVLLAAPHHPLAGRKALTLTELQQHVELTIEDSSPVKTYRDELQFGGDKVFYLSGFIMKKNALLKGLGFGWMPDFLVRDELKAGLLTEIDFVGGSRYTFVPQLVSTLERPLGRAGRLFTELILEEFAKEPMGIPEGLG", "not soluble"),
]

====

# experimental.details: soluble on expression in E. coli; label from the status in PepcDB or PDB records
result.type: soluble on expression in E. coli

Worked cases, answers included:
# sequence.entry, soluble on expression in E. coli
measured = [
    ("VDLNALADLPLTYPEVGATATGRLPAGYNHLDVSTQIGTGRQRFEQAADAVMHWGMQRNAGLRVRASSETAVVSAVVLVGIAFLRAPCRVVYVIDEPDVRGFGYGTLPGHPVSGEERFAVRCDPMTSVVFAEVLSFSRPATWASKAAGPLGAVTQRFIAQRYLRAV", "not soluble"),
    ("MSTQNEESEESARRPQSISHLARVEVEEPARKMRLMFGEKQVVFIRSDGLRSRVVRENMKKKLSQEIEKKEDLDTDSPNLTKVIDDVASGATGSSSLPSSSTESYSTSSSSSSSSSDLNSAYSSTSEPQATSSSAPESSTNSSASPEIKGNRNYHPPREFHGASTMVSHKRRWTYQTACDINAAEQSGDSEMYYIAHPLLPMPRGSGRNEVSTATRMNYAGQQIDNRKFRGQSKAVNQFANTESVTCEKCGMRYFFESIQMQERISYLLPPNEEDLPIALFECPVCKITTKVK", "not soluble"),
    ("MANFMSKEAPFWKVKKLEEMSLSEWESLCDGCGLCCLHKVEDDDTGDIYATSVACRLLDSETCRCRNYVHRKSIVPDCIFLNLATIKTVRWLPENCAYRLIYEGKDLYWWHPLVSGNYQTVHQTQFSARGQIEIYEDELSSEEDYLQYITGILCEGR", "not soluble"),
    ("MAHHHHHHMPAVKQHLTGKASAAMRPTPSDAGAVLEPLTVRPSRVTTTTDHLTTSSAISTISVDTIRECGSAEDAYEAGKELGGVGPVFTGVAVPAEHPVAAAMPADAAELRHEEELKVIMCRYRPQSTEN", "soluble"),
]

Param item = "MMQIDSIEIGGKVYQFFKSDLGNAPLLFIKGSKGYAMCGYLNMETSNKVGDIAVRVMGVKTLDDMLSAKVVEASQEAQKVGINPGDVLRNVIDKL" ; retrieve measured soluble on expression in E. coli. soluble

Param item = "ENMLFTVVSLYISTKVLDFILEGYNPKKSVTIISDYYEEIATEIDANLERGITLFNGQGFYMRQDKKILYIVISRDQLLPLTKIVNKYDEKAFFIINDVQSVVGEGFTKQITSE" ; retrieve measured soluble on expression in E. coli. not soluble

Param item = "MQKKSIYVAYTGGTIGMQRSDNGYIPVSGHLQRQLALMPEFHRPEMPDFTIHEYAPLIDSSDMTPEDWQHIANDIQQNYDLYDGFVILHGTDTMAFTASALSFMLENLAKPVIITGSQIPLAELRSDGQTNLLNALYLAANHPVNEVSLFFNNQLFRGNRTTKAHADGFDAFASPNLSVLLEAGIHIRRQSSVVSPTSNGPLIVHRITPQPIGVVTIYPGISGAVVRNFLLQPVKALILRSYGVGNAPQKAELLDELKNASDRGIVVVNLTQCISGSVNMGGYATGNALAQAGVISGFDMTVEAALTKLHYLLSQSLSPNEIRQLMQQNLRGELTDTQ" ; retrieve measured soluble on expression in E. coli. soluble

Param item = "GAMAMSGGLPELGSKISLISKADIRYEGRLYTVDPQECTIALSSVRSFGTEDRDTQFQIAPQSQIYDYILFRGSDIKDIRVVNNHTLP" ; retrieve measured soluble on expression in E. coli. soluble

====

# experimental.details: soluble on expression in E. coli; label from the status in PepcDB or PDB records
result.type: soluble on expression in E. coli

# sequence.entry, result.type, experimental.result
rows = [
    ("MSLTFELYSGATFFRSRSAATKKVRDMQKERLKYVQEVYKVLATYVNFPKVCLPELIEKSIYEITEEEIVKKAEELRKIWGLDLISPVPNLIQLAEQNGVIISEANMSNPTLDAVSRWMIGRPFIMLTDNHESAVRRRFNVAHELGHILLHNGVESIHEYSQTELKNIIEYQANLFAAHFLLPSAAFSDSLLSISLEYYIDLKKYWKVSLQSMIQKIYTLALINDDQRLYLNKRIAKNKWKTKEPYDEQLTIEQPEVFQKVYHMILEHQVIPASQLNQAFKLPKEEIEKILGTAIQTEQDKTEIVLELLRSNKEGHHHHHH", "soluble on expression in E. coli", "soluble"),
    ("MLNDGEVTPSRHEILSMVKKHSKSLGKTSLDEQDASDVEMDSNFWHGVFDVYFVRCMESRRRQDDDLLFFVRKLSCKSYGLTENEDAPAPYFVRRWAPKLDELLGESLAEVDWRKSFYLNMIAHTSFTVTVAICSNEALKTYQGSKDTKLSPIYKVVKTVYASPSRVNFHLDSKKEVETTPAYPEICFAVDDFDSTFDAVVLTDKDHCYCVLLNSHDGAAFPSATVKDSSDSNTNADPRTVKDPKVTLFSGFVSYQMVREAYEGGRNRFGSLLSLGHITGKADRLYMRGPGGRGEVEVAVSGVVDQSQVVLGPVSPMSSKKSIDLGSIFRKAASVASVAAKHAIAAATASYDEDEMFPLKCCLMSISLPWDTIAHDLLFKATPPVNME", "soluble on expression in E. coli", "soluble"),
]

====

# experimental.details: soluble on expression in E. coli; label from the status in PepcDB or PDB records
result.type: soluble on expression in E. coli

Worked cases, answers included:
# sequence.entry, experimental.result
rows = [
    ("MNKELTFNDLPMVVAQLRDEVVGMKQMIVSLQSQNKPHKANTHIPMSVEEASAYLKMPMATLYMKLGNGSIPATKPGKRYCLYQDELDKWLETNRKNPVPLTAEEENAAILAGNKRKPKPLNW", "not soluble"),
    ("MSLEVLATFLYKFNGWSFLGRVLQNLSKNFDFTDREKVDTIVDIMSMLTKVVGEVSVEDSKHALTSMSAYTDDSDVLEVIFRLFEQSLHSRNIRMIESILNLLTQLVPIFSYRIWPAFSKSALLFDGTREGFATVIFGSIEMVNGDFRLTIALAKLTDALVYDCLTLDNAVPSKVKEAVLKKLVSHLIAVMESYAQEGHHHHHH", "soluble"),
    ("STDVHRRFLQLLMTHGVLEEWDVKRLQTHCYKVHDRSATVDKLEDFINNINSVLESLYIEIKRGVTEDDGRPIYALVNLATTSISKMATDFAENELDLFRKALELIIDSETGFASSTNILNLVDQLKGKKMRKKEAEQVLQKFVQNKWLIEKEGEFTLHGRAILEMEQYIRETYPDAVKICNICHSLLIQGQSCETCGIRMHLPCVAKYFQSNAEPRCPHCNDYWPHEIPKVFDPEKERESGVLKSNKKSLRSRQH", "soluble"),
    ("GETSVPPGSALVGPSCVMDDFRDPQRWKECAKQGKMPCYFDLIEENVYLTERKKNKSHRDIKRMQCECTPLSKDERAQGEIACGEDCLNRLLMIECSSRCPNGDYCSNRRFQRKQHADVEVILTEKKGWGLRAAKDLPSNTFVLEYCGEVLDHKEFKARVKEYARNKNIHYYFMALKNDEIIDATQKGNCSRFMNHSCEPNCETQKWTVNGQLRVGFFTTKLVPSGSELTFDYQFQRYGKEAQKCFCGSANCRGYLGGENRVSIRAAGGKMKKERSRK", "soluble"),
]

Here is another sequence to look at.
Param item = "MGSDKIHHHHHHMKVTLIGIDLAKNVLQVCGVNQVGKTLFNRTVKRTQLLKTLVQYPDAVIAMEACSGSNYWGRELLSRGFEVKLIPPQHVKPFVKGNKNDRNDAFAICEAAMRPNIIFVKPRTLAQVDIIISHRIRERRIRVRTALTNQIRGLLSEYGIVIPKGRDPLNLALPELLEDADNSLTTTARRYIRELLDELYAINASIKALEKEIRLQARNHEDTKRLTAIRGVAEIIATASVSFAGDGSGYQNGRHFSANLGLVPKEFSSGGKQKLGAITKRGNSYLRRQLIQGAWSVIRYAKNNDDRLSVWARKVIERRGKQKAAVAVANKLARIIWAMLYYKTEYRPS" ; retrieve measured soluble on expression in E. coli. not soluble
